Experiment: Cytotoxicity against human 899 cells after 7 to 20 days by clonogenic assay
Type: functional, cell-based
endpoint.name: IC50 (µM)
Expressed in µM, but write only the number.

Give the measured IC50 for `CNC1=CC(=O)c2cc(C)ncc2C1=O`
5.35

----------
Test: Cytotoxicity against human 1781L cells after 4 days by propidium iodide assay
Type: functional, cell-based
Conditions: 96 h
endpoint.name: pIC50
Please report pIC50 as the negative decimal logarithm of the molar concentration, giving only the number.

CNC1=CC(=O)c2cc(C)ncc2C1=O ... 5.00

Give the measured pIC50 for `CNC1=CC(=O)c2cc(C(=O)OC)ncc2C1=O`
6.94

Give the measured pIC50 for CNC1=CC(=O)c2c(cnc(C)c2C)C1=O [MANSOURAMYCIN A]
4.79
